ASSAY OVERVIEW: Rat pharmacokinetic study
Type: in vivo, SD rat
COND: SD, plasma, PO 10 mg/kg, read-out: t½ (converted)
Method: SD rat pharmacokinetic study was performed on several compounds in Examples of the present disclosure through a single intravenous injection (IV, at a dose of 2 mg/kg) and a single oral administration (PO, at a dose of 10 mg/kg), and blood samples were taken before administration and 5 min, 15 min, 30 min, 1 h, 2 h, 4 h, 8 h, 12 h and 24 h after administration, respectively, to determine the plasma concentration of the compound for assay. […]
MEASURED ATTRIBUTE: half-life (h)

1: CCN(c1nc(-c2ccc(F)cc2)c(C#N)s1)c1c2nc(-c3cnc(N4CCC(O)CC4)nc3)ccc2nn1CC
2: CCN(c1nc(-c2ccc(F)cc2)c(C#N)s1)c1c2nc(-c3cnc(N4CCCS4(=O)=O)nc3)ccc2nn1CC
Problem: Lab note: check whether 1 or 2 shows the higher recorded half-life. Give the chosen item's label as your response.
Solution: 1
(1: 5.8 h, 2: 3.7 h)

I: CCN(c1nc(-c2ccc(F)cc2)c(C#N)s1)c1c2nc(-c3cnc(N4CC[C@@H](O)C4)nc3)ccc2nn1CC
II: CCN(c1nc(-c2ccc(F)cc2)c(C#N)s1)c1c2nc(-c3cnc(N4CCOCC4)nc3)ccc2nn1CC
Problem: Field: lower half-life | Options: I / II Give the chosen item's label as your response.
Solution: I
